MIC Coagulase Negative Staphylococcus (GC 4549) for assorted compounds
System: Staphylococcus sp.
protocol details: In vitro antibacterial evaluation: minimum inhibitory concentration (MIC), broth dilution method
Assay type: cell-based
applied conditions: Coagulase Negative Staphylococcus (GC 4549); 18 hours at 35° C.
Respond numerically; units are µg/mL and should not be typed.

Consider the reported MIC Coagulase Negative Staphylococcus (GC 4549) for these compounds:
compound	recorded measurement
CC(c1ccccc1)C1NC(=O)CNC(=O)C(CO)NC(=O)C(C(O)C2CNC(=N)N2C2OC(CO)C(O)C(O)C2O)NC(=O)C(C(O)C2CNC(=N)N2)NC(=O)C(Cc2ccc(OC3OC(CO)C(OC4OC(COCc5cccs5)C(O)C(O)C4O)C(O)C3O)cc2)NC1=O (stereo not drawn) [Example 244]	2
CC(C)C(=O)OCC1OC(OC2C(CO)OC(Oc3ccc(CC4NC(=O)C(Cc5ccccc5)NC(=O)CNC(=O)C(CO)NC(=O)C(C(O)C5CNC(=N)N5C5OC(CO)C(O)C(O)C5O)NC(=O)C(C(O)C5CNC(=N)N5)NC4=O)cc3)C(O)C2O)C(O)C(O)C1O (stereo not drawn) [Example 283a]	32

Log: Staphylococcus sp., compound COc1ccc2cc(COCC3OC(OC4C(CO)OC(Oc5ccc(CC6NC(=O)C(C(C)c7ccccc7)NC(=O)CNC(=O)C(CO)NC(=O)C(CC7CNC(=N)N7C7OC(CO)C(O)C(O)C7O)NC(=O)C(CC7CNC(=N)N7)NC6=O)cc5)C(O)C4O)C(O)C(O)C3O)ccc2c1 (stereo not drawn) [Example 245] , MIC Coagulase Negative Staphylococcus (GC 4549) = 1

Log: Staphylococcus sp., compound CC(c1ccccc1)C1NC(=O)CNC(=O)C(CO)NC(=O)C(C(O)C2CNC(=N)N2C2OC(CO)C(O)C(O)C2O)NC(=O)C(C(O)C2CNC(=N)N2)NC(=O)C(Cc2ccc(OC3OC(CO)C(OC4OC(CO)C(OCC=Cc5ccc(N(C)C)cc5)C(O)C4O)C(O)C3O)cc2)NC1=O (stereo not drawn) [Example 243a] , MIC Coagulase Negative Staphylococcus (GC 4549) = 16

Log: Staphylococcus sp., compound CC(C)CC(=O)OC1C(OC2C(CO)OC(Oc3ccc(CC4NC(=O)C(C(C)c5cccs5)NC(=O)CNC(=O)C(CO)NC(=O)C(C(O)C5CNC(=N)N5C5OC(CO)C(O)C(O)C5O)NC(=O)C(C(O)C5CNC(=N)N5)NC4=O)cc3)C(O)C2O)OC(CO)C(O)C1O (stereo not drawn) [Example 265a] , MIC Coagulase Negative Staphylococcus (GC 4549) = 4

Log: Staphylococcus sp., compound COc1ccc(COCC2OC(OC3C(CO)OC(Oc4ccc(CC5NC(=O)C(C(C)c6ccccc6)NC(=O)CNC(=O)C(CO)NC(=O)C(C(O)C6CNC(=N)N6C6OC(CO)C(O)C(O)C6O)NC(=O)C(C(O)C6CNC(=N)N6)NC5=O)cc4)C(O)C3O)C(O)C(O)C2O)c2ccccc12 (stereo not drawn) [Example 240] , MIC Coagulase Negative Staphylococcus (GC 4549) = 2
